TEST_SYSTEM: human PDE1A (Homo sapiens (Human))
ASSAY_PROTOCOL: Ca2+ calmodulin dependent PDE enzyme assay (SPA, [3H]cAMP), PDE1A
Format: biochemical
COND: [3H]cAMP 47 nM; enzyme 0.25 nM; read-out: PDE 1A IC50 (nM) ± SD (n = number of runs)
READOUT_KIND: IC50 (nM)

O=c1c2nnc(C3(C4CC4)CC3)n2c2c(n1CC1CC1)CCOC2 9.8
CCCCn1c2c(n3c(C4(C5CC5)CC4)nnc3c1=O)CCOC2 5.2
CCCCn1c2c(n3c(C4(C5CC5)CC4)nnc3c1=O)COCC2 6.3
CCCn1c2c(n3c(C4(C5CC5)CC4)nnc3c1=O)CCCC2 2.9
O=c1c2nnc(C3(C4CC4)CC3)n2c2c(n1CC1CC1)CCCCC2 6.5
O=c1c2nnc(C3(C4CC4)CC3)n2c2c(n1CC1CC1)COCC2 8.4
O=c1c2nnc(C3(C4CC4)CC3)n2c2c(n1CC1CCC1)CCOC2 5.8
CCCCn1c2c(n3c(C4(C5CC5)CC4)nnc3c1=O)CCCC2 3
